Assignment: determine reported GI50 for the given molecules.
# Target or system: BaF3 TELJAK2 cells (BafT_J2) (Homo sapiens, UniProt O60674)
# Construct: fused on or other part: TEL (ETV6) N-terminal part, coding nucleotides 1-487, serves as the oligomerising partner; It is fused through a Sal I site to the JAK2 kinase domain and expressed from pTRE2 in BaF3 cells bearing pTET-off; P41212 (Transcription factor ETV6)
# Sequence (O60674 whole entry, change not shown, the tested form may be a part): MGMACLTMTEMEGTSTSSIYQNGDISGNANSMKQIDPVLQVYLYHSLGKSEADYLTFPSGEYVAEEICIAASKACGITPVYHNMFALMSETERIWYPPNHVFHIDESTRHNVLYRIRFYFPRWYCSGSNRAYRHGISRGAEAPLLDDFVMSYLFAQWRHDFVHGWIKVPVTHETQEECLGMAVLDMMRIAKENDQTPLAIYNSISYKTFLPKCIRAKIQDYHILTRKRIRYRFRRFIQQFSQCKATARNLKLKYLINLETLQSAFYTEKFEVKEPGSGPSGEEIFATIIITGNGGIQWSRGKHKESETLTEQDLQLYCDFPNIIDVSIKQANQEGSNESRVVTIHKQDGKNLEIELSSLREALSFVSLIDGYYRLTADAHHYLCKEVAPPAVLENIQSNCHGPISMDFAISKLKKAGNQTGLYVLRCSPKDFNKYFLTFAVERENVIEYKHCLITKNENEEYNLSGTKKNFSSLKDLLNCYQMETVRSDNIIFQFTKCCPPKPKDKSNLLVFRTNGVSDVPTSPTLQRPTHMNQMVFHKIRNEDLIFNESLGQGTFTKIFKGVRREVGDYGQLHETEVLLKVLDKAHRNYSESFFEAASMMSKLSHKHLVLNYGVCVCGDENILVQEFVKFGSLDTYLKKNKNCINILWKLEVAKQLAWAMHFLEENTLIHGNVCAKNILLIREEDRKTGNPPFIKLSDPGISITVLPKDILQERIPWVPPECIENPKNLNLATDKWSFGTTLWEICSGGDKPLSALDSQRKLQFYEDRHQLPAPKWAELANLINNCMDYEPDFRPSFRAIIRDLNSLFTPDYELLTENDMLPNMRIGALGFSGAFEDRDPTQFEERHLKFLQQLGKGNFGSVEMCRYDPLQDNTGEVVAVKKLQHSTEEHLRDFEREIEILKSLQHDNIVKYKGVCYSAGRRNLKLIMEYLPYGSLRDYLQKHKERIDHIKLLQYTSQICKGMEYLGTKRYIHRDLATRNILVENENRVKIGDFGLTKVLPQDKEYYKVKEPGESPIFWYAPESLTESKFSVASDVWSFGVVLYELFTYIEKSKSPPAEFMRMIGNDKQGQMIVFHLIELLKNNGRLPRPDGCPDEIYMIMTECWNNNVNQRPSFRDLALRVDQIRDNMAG
# Assay method text: Cellular screening, BaF3 TEL:JAK2 cells, Alamar Blue
# Type: cell-based
# Measurement conditions: 40 hr, read-out: BafT_J2 IC50_nM
# Description: For screening purposes, compounds were diluted in 96 well plates at a concentration of 20 μM. Plates were warmed at 37° C. for 30 minutes before the assay was performed. […] Compounds to be tested were added (10 μL, 10× final concentration) to a flat bottomed 96-well plate. […] The plates were then read at 544 nm.

Completed entries (count: 6):
Cc1cnc(Nc2ccc(N3CCOCC3)cc2)nc1Sc1ccc(N2C(=O)CCC2=O)cc1 [Compound 384]; > 20 µM
C=CC(=O)Nc1ccc(Sc2nc(Nc3ccc(C)c(Br)c3)ncc2C)cc1 [Compound 242]; > 20 µM
COc1ccc(Nc2nccc(Sc3ccc(NC(=O)CC#N)cc3)n2)cc1OC [Compound 101]; < 5 µM
N#Cc1c(N)ncn1Cc1ccc(Sc2ccnc(Nc3ccc(N4CCOCC4)cc3)n2)cc1 [Compound 203]; < 1 µM
C=CC(=O)Nc1ccc(Sc2nc(Nc3ccc(OC)c(NS(C)(=O)=O)c3)ncc2C)cc1 [Compound 293]; < 5 µM
Cc1cnc(Nc2ccc(N3CCOCC3)cc2)nc1Sc1ccc(C(C#N)N2CCOCC2)cc1 (centres unmarked) [Compound 223]; < 5 µM

I'm hoping you can list GI50 for every molecule here, please.
1. C=CC(=O)Nc1ccc(Sc2nc(Nc3cccc(OC(F)(F)F)c3)ncc2C)cc1 [Compound 289]
2. C=CC(=O)Nc1ccc(Sc2ccnc(Nc3ccc4c(c3)OCO4)n2)cc1 [Compound 393]

1. < 20 µM
2. < 20 µM

----------
# Target or system: Flt 1(h) (Homo sapiens)
# Construct: purchased Upstate Biotechnology (Dundee, UK), KinaseProfiler service
# Sequence (P17948 27-1338): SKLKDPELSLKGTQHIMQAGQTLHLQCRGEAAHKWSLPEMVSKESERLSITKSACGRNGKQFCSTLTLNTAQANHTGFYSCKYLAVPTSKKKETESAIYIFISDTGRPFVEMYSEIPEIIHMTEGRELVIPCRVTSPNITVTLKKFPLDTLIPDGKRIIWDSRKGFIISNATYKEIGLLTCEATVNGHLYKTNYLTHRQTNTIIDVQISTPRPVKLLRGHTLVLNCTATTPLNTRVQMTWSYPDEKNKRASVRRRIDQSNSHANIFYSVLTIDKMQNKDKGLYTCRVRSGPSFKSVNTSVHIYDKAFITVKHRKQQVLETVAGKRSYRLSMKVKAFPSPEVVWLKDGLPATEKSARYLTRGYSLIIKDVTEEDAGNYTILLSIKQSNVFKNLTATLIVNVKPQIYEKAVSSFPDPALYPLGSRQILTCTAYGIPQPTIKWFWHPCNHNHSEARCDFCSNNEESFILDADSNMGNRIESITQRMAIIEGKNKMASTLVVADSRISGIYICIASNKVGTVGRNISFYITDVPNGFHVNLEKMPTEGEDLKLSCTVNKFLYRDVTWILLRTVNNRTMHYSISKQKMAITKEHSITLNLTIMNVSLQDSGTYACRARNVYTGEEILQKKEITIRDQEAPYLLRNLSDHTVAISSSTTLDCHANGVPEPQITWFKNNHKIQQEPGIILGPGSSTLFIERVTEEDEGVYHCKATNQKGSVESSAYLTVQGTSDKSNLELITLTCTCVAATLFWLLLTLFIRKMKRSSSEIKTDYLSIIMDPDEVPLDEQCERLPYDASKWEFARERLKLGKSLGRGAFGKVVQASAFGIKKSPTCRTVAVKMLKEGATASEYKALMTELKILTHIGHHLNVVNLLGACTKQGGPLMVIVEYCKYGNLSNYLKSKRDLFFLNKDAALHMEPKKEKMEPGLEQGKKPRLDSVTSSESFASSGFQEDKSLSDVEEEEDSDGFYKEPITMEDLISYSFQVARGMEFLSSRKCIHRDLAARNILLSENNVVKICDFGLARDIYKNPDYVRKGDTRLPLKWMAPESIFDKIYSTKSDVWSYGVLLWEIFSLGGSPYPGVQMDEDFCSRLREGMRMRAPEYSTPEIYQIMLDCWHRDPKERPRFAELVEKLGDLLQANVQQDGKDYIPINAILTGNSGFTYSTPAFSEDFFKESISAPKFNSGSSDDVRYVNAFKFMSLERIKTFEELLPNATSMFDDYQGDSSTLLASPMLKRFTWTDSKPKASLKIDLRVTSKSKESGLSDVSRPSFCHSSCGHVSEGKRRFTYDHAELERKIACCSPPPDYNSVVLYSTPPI
# Assay method text: Upstate KinaseProfiler enzyme assay, Flt 1
# Type: biochemical
# Measurement conditions: 500 nM compound; read-out: Percent inhibition at 500 nM Flt 1(h)
Measured quantity: inhibition at 0.5 µM (%)
Give bare numbers, in %.

C=CC(=O)Nc1ccc(Sc2nc(Nc3ccc(N4CCOCC4)cc3)ncc2C)c(C)c1; 83
C=CC(=O)Nc1ccc(Sc2ccnc(Nc3ccc(N4CCN(C)CC4)cc3)n2)cc1; 97
C=CC(=O)Nc1ccc(Sc2nc(Nc3ccc(CNS(C)(=O)=O)cc3)ncc2C)cc1; 94
C=CC(=O)Nc1ccc(Sc2nc(Nc3ccc(N4CCC(C(=O)OCC)CC4)cc3)ncc2C)cc1; 67
Cc1cnc(Nc2ccc(N3CCOCC3)cc2)nc1Sc1ccc(N2C(=O)CSCC2=O)cc1; 95

// input: 5 molecules below; output: inhibition at 0.5 µM for each
1. C=CC(=O)N1CCc2cc(Sc3nc(Nc4ccc(N5CCOCC5)cc4)ncc3C)ccc21
2. C=CC(=O)Nc1ccc(Sc2nc(Nc3ccc(NS(C)(=O)=O)cc3)ncc2C)cc1
3. N#Cc1nnnn1Cc1ccc(Sc2ccnc(Nc3ccc(N4CCOCC4)cc3)n2)cc1
4. C=CC(=O)Nc1ccc(Sc2nc(Nc3cccc(CO)c3)ncc2C)cc1
5. C=CC(=O)Nc1ccc(Sc2nc(Nc3cccc(NS(C)(=O)=O)c3)ncc2C)cc1

[74, 95, 74, 100, 100]

Consider the following items and state reported inhibition at 0.5 µM for each.
1. O=C(/C=C/Cl)Nc1cccc(Sc2ccnc(Nc3ccc(N4CCOCC4)cc3)n2)c1
2. C=CC(=O)Nc1ccc(Sc2nc(Nc3cccc(OC)c3)ncc2C)cc1
3. C=CC(=O)Nc1ccc(Sc2nc(Nc3ccc(N4CCC(CO)CC4)cc3)ncc2C)cc1
4. C=CC(=O)Nc1ccc(Sc2nc(Nc3ccc(OC)c(OC)c3)ncc2C)cc1
5. N#Cc1nnn(Cc2ccc(Sc3ccnc(Nc4ccc(N5CCOCC5)cc4)n3)cc2)n1
6. C=CC(=O)Nc1ccc(Sc2nc(Nc3ccc(OC)c(NS(C)(=O)=O)c3)ncc2C)cc1

1: 100; 2: 86; 3: 98; 4: 100; 5: 80; 6: 79

Fill blank: measured inhibition at 0.5 µM of the molecule "C=CC(=O)N1CCCc2cc(Sc3nc(Nc4ccc(N5CCOCC5)cc4)ncc3C)ccc21" is ____. 66

----------
# Target or system: BaF3 TELJAK3 cells (Homo sapiens, UniProt P52333)
# Construct: fused on or other part: TEL (ETV6) N-terminal part, coding nucleotides 1-487, serves as the oligomerising partner; It is fused through a Sal I site to the JAK3 kinase domain and expressed from pTRE2 in BaF3 cells bearing pTET-off; P41212 (Transcription factor ETV6)
# Sequence (P52333 whole entry, change not shown, the tested form may be a part): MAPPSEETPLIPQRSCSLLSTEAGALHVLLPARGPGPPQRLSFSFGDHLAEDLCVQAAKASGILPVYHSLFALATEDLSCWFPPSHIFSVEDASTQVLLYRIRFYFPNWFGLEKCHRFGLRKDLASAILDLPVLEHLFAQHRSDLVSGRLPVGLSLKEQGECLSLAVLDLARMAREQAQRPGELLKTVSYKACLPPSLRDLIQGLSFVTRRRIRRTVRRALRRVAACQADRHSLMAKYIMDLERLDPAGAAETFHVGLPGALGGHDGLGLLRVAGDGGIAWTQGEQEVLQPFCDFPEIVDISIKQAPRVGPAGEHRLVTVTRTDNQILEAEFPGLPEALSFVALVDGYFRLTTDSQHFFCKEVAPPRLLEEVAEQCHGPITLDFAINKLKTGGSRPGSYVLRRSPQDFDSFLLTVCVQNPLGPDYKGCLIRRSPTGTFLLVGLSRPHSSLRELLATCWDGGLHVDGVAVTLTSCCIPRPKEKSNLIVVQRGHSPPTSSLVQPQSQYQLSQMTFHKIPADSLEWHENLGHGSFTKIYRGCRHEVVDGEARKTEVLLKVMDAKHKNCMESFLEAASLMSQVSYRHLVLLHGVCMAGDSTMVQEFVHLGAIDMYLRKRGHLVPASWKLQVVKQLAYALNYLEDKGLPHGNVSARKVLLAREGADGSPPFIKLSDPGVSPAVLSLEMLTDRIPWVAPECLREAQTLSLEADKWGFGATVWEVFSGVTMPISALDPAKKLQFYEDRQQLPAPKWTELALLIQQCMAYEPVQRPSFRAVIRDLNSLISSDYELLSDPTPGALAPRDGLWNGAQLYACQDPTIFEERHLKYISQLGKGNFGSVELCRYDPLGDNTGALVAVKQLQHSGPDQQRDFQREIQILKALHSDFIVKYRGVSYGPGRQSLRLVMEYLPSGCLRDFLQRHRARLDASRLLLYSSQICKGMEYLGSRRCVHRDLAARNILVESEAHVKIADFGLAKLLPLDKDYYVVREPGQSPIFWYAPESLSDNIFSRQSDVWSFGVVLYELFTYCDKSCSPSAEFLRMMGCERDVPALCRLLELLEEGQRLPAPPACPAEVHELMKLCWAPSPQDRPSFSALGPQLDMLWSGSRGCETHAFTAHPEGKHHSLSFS
# Assay method text: Cellular screening, BaF3 TEL:JAK3 cells, Alamar Blue
# Format: cell-based
# Measurement conditions: 40 hr, read-out: BafT_J3 IC50_nM
Measured quantity: GI50

Example entries begin here.
C=CC(=O)Nc1ccc(Sc2ccnc(Nc3ccc(N4CCOCC4)cc3)n2)c(Cl)c1C; < 1000 nM
C=CC(=O)Nc1cccc(Nc2nccc(Sc3cccc(OC)c3)n2)c1; < 1000 nM
C=CC(=O)Nc1ccc(Sc2nc(Nc3cccc(OC(F)(F)F)c3)ncc2C)cc1; < 5000 nM

Consider the following items and state reported GI50 for each.
1. CC#CC(=O)Nc1cccc(Nc2nccc(SC)n2)c1
2. C=CC(=O)Nc1ccc(Sc2nc(Nc3cccc(OCCCO)c3)ncc2C)cc1
3. C=CC(=O)Nc1ccc(Sc2nc(Nc3ccc(N4CCC(C(=O)OCC)CC4)cc3)ncc2C)cc1
4. O=C(/C=C\Cl)Nc1ccc(Sc2ccnc(Nc3ccc(N4CCOCC4)cc3)n2)cc1
5. Cc1cnc(Nc2ccc(N3CCOCC3)cc2)nc1Sc1ccc(C(C#N)N2CCN(C)CC2)cc1 (centres unmarked)

< 5000 nM
< 1000 nM
< 5000 nM
< 1000 nM
< 5000 nM

----------
# Target or system: FLT-3 tyrosine kinase (Homo sapiens, UniProt P36888)
# Sequence (P36888 27-993): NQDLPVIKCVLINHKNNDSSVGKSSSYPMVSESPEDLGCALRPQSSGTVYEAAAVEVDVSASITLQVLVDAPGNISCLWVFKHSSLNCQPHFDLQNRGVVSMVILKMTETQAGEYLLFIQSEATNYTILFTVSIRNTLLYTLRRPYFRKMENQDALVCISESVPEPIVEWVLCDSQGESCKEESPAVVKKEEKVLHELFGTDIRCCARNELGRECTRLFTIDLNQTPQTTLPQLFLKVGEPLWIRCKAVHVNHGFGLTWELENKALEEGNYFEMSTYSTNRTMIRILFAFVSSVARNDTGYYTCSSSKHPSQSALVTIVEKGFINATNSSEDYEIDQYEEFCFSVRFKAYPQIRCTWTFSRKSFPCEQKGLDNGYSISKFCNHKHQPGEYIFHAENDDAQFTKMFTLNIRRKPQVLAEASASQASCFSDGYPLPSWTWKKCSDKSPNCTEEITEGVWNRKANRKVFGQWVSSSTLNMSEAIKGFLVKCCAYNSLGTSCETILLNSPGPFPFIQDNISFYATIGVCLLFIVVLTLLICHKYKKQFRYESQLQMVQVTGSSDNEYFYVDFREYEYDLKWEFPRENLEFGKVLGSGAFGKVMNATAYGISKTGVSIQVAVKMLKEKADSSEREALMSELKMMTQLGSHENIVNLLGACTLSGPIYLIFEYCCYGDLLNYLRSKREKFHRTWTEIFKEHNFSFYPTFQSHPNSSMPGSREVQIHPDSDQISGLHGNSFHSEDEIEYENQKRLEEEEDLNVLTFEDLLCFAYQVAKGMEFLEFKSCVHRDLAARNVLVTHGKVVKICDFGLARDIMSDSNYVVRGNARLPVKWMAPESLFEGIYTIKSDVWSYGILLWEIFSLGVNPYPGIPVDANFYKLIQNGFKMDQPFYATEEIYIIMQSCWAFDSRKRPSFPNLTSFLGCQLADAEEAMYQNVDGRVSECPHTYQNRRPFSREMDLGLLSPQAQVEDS
For each record, write down the corresponding IC50.

OCc1cccc(Sc2ccnc(Nc3ccc(N4CCOCC4)cc3)n2)c1; < 100 nM
COc1cc(Nc2nccc(Sc3ccc(NCC#N)cc3)n2)cc(OC)c1OC; < 500 nM
N#CCNCc1cccc(Sc2ccnc(Nc3ccc(N4CCOCC4)cc3)n2)c1; < 500 nM

Query compound follows.
Looking for the measured IC50 of "OCc1ccc(Sc2ccnc(Nc3ccc(N4CCOCC4)cc3)n2)cc1" , can you help? < 100 nM

----------
# Target or system: BaF3 TELJAK3 cells (Homo sapiens, UniProt P52333)
# Construct: fused on or other part: TEL (ETV6) N-terminal part, coding nucleotides 1-487, serves as the oligomerising partner; It is fused through a Sal I site to the JAK3 kinase domain and expressed from pTRE2 in BaF3 cells bearing pTET-off; P41212 (Transcription factor ETV6)
# Assay method text: Cellular screening, BaF3 TEL:JAK3 cells, Alamar Blue
# Type: cell-based
# Measurement conditions: 40 hr, read-out: BafT_J3 IC50_nM
Measured quantity: GI50

CSc1nc(Nc2ccc(N3CCOCC3)cc2)ncc1C; < 5 µM

Hey, quick one: what's GI50 for each of these?
1. C=CC(=O)N(C)c1ccc(Sc2ccnc(Nc3ccc(N4CCOCC4)cc3)n2)cc1
2. C=CC(=O)Nc1ccc(Sc2ccnc(Nc3cc(C)cc(C)c3)n2)cc1
3. C=CC(=O)Nc1ccc(Sc2nc(Nc3ccc(NS(C)(=O)=O)c(OC)c3)ncc2C)cc1
4. N#CCNCc1cccc(Sc2ccnc(Nc3ccc(N4CCOCC4)cc3)n2)c1

["< 1 µM", "< 5 µM", "< 1 µM", "< 20 µM"]
